Values were extracted from paper PMC2756588.

Property: SPOT intensity; scope: individual binders
system.under.test: T1, Lsb4, P32793
T1 sequence (P32793 402-468, looked up): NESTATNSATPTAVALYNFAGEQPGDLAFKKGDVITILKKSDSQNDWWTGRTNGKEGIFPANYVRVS
procedure.text: SPOT array
stated.conditions: median of control spots 397
Response field accepts a number only; no unit should be typed.

1. QHQQRQPKRPKRYSL	101
2. QLLNPNRRAPRRPLS	35
3. MAMRPIPPLPTESEY	278
4. PSRRDSLSIPRAVDA	0
5. PLQSKIPMLPSRRTM	960
6. SLSRRRFSLPSMPNV	9
7. STPQTMRQAPKRPDA	33
8. VQQDSLPKLPFRSWG	1310

Check the records and state SPOT intensity for MKRSRPSRSIPYTTP
6

Check the records and state SPOT intensity for VTHRLRISIPGITGR
22

Check the records and state SPOT intensity for RRASLFPRDPKRLRP
4

Check the records and state SPOT intensity for RSRRSSFAYPQQVAI
0

Check the records and state SPOT intensity for MPAPPPPPPPPPGAF
0

Check the records and state SPOT intensity for TEVPIPRRPPPPQAA
108

Check the records and state SPOT intensity for RMVRRRPLRVQFSAR
25

Check the records and state SPOT intensity for NSVPIMPTLPPRPYI
513

Check the records and state SPOT intensity for NMLSRPRLAKLPSIR
10

Check the records and state SPOT intensity for PKRRAPPPVPKKPSS
182

Check the records and state SPOT intensity for ALKQKKIPPPFKPHL
0

Check the records and state SPOT intensity for NFKRLLPRDPSEKSS
0

Check the records and state SPOT intensity for RRRRRPHRIERPLSN
6
